- assay_system: T1, recombinant human IL-6 (human, UniProt P05231 30-212)
- T1 construct: Flowed in solution over the captured antibodies
- T1 sequence (P05231 30-212 limits assumed): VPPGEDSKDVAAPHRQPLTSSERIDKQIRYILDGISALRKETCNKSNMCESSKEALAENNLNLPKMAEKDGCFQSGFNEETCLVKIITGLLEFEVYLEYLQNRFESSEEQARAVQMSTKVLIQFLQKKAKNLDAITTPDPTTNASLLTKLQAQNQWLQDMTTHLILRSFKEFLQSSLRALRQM
- measurement_protocol: SPR (Biacore), supernatant IgG on Protein A, 25 C
For each record, write down the corresponding koff.

Reference set, count: 2
INSERT INTO measurements (binder, outcome_measure, reported_measurement) VALUES
  ('anti-IL-6 antibody, heavy chain WT, light chain S24I (antibody, IgG1, V domains shown, Full IgG1 tested; V domains derived as in m2) VH: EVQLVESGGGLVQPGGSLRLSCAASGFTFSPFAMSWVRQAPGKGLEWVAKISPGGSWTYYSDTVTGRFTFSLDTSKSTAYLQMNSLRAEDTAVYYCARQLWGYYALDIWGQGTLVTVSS VL: DIQLTQSPSSLSASVGDRVTITCIASISVSYMYWYQQKPGKAPKLLIYDMSNLASGVPSRFSGSGSGTDFTLTISSLQPEDFATYYCMQWSGYPYTFGQGTKVEIK', 'koff', '0.000135 s⁻¹'),
  ('anti-IL-6 antibody, heavy chain WT, light chain S26H (antibody, IgG1, V domains shown, Full IgG1 tested; V domains derived as in m2) VH: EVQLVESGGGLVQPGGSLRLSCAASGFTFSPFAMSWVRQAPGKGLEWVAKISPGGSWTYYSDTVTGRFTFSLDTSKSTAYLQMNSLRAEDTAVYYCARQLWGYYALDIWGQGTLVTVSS VL: DIQLTQSPSSLSASVGDRVTITCSAHISVSYMYWYQQKPGKAPKLLIYDMSNLASGVPSRFSGSGSGTDFTLTISSLQPEDFATYYCMQWSGYPYTFGQGTKVEIK', 'koff', '0.000149 s⁻¹');

Field: next binder
Ask | Please indicate koff recorded for anti-IL-6 antibody, heavy chain S35Q, light chain WT (antibody, IgG1, V domains shown, Full IgG1 tested; V domains derived as in m2) VH: EVQLVESGGGLVQPGGSLRLSCAASGFTFSPFAMQWVRQAPGKGLEWVAKISPGGSWTYYSDTVTGRFTFSLDTSKSTAYLQMNSLRAEDTAVYYCARQLWGYYALDIWGQGTLVTVSS VL: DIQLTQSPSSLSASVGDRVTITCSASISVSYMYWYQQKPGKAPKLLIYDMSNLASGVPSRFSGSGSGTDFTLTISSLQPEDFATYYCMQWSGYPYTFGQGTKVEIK
Reply | 0.00013 s⁻¹
